target: Amyloid-beta precursor protein (Homo sapiens, UniProt P05067); assay: Inhibition of amyloid beta-42 (unknown origin) aging fibrils disaggregation at 50 uM by thioflavin-T fluorescence assay
Sequence (P05067 whole entry): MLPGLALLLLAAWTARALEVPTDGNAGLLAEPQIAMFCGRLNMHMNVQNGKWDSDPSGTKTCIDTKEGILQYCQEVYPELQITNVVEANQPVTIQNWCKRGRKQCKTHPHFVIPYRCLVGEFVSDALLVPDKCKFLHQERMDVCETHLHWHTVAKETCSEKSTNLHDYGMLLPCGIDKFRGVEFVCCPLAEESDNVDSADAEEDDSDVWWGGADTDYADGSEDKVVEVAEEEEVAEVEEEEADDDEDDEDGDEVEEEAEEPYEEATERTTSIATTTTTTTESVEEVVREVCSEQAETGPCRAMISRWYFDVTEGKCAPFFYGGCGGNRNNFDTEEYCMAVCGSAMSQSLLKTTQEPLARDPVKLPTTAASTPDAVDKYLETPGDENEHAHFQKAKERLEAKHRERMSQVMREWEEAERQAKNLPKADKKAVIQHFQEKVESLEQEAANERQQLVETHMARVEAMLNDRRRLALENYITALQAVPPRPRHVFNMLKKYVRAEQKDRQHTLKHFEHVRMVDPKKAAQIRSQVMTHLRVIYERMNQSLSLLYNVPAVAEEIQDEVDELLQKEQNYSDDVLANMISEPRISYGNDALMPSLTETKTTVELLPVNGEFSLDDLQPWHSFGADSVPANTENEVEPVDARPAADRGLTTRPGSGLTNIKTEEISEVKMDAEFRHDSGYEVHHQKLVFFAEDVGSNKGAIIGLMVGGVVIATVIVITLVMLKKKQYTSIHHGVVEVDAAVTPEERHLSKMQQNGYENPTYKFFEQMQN
RESULT_TYPE: inhibition

In [3]: df
Out[3]:
                                smiles_data                                    target  result_type  measured_value
0  CC(C)c1c(NC(=O)/C=C/c2ccc(O)c(O)c2)cc2c(c1[N+](=O)[O-])CC[C@H]1[C@](C)(CNC(=O)/C=C/c3ccc(O)c(O)c3)CCC[C@]21C  Amyloid-beta precursor protein (Homo sapiens, UniProt P05067)   inhibition           82.8%
1  CC(=O)Oc1cc(/C=N\C[C@]2(C)CCC[C@]3(C)c4ccc(C(C)C)cc4CC[C@@H]23)cc(OC(C)=O)c1OC(C)=O  Amyloid-beta precursor protein (Homo sapiens, UniProt P05067)   inhibition           8.93%

Hey, just so you know, these numbers are from ChEMBL document CHEMBL3621083.
